# key: entry, value: GI50
Test system: T47D
Assay: NCI tumour cell line growth inhibition, 48 h
Where a name gives a salt, the structure may show the parent alone. Calls of active or inactive are those of the source. No stated cut-off is given here; in the data, active = GI50 up to about 1.1 µM and inactive = higher.

COc1ccc(-c2cc(-c3ccncc3)nc(N)c2-c2ccc(F)cc2)cc1    80.9 µM (inactive)
O=C(Nc1sccc1S(=O)(=O)c1ccc(Cl)cc1)c1ccc(Cl)cc1Cl    19.1 µM (inactive)
O=C1c2ccccc2C(=O)N1CCCCCCNOCCCN1C(=O)c2ccccc2C1=O    16.8 µM (inactive)
COc1ccccc1Nc1nc(N)nc(N)c1N    58.5 µM (inactive)

State, in one line, measured GI50 of CCOC(=O)NC(Nc1ccc(S(=O)(=O)Nc2ccc(OC)nn2)cc1)(C(F)(F)F)C(F)(F)F > 100 µM (inactive)

Provide GI50 value for the following compound: c1ccc([C@H]2CN3CCSC3=N2)cc1 [LEVAMISOLE HYDROCHLORIDE] > 100 µM (inactive)

For the compound Nc1nc(O)nc2c1ncn2C1OC(CO)C(O)C1O (stereo not given) , give its measured GI50 value. 25.1 µM (inactive)

* * *

System: OVCAR-3
Assay: NCI tumour cell line growth inhibition, 48 h
Active and inactive are the calls of the source. Rule as the data show it: active = GI50 up to about 1.1 µM and inactive = higher.
// allowed return values: TRUE (active), FALSE (inactive)

Use these answered entries as a reference point.
COc1cc(C2c3cc4c(cc3[C@@H](NC3CCN(Cc5ccccc5)CC3)C3COC(=O)[C@H]23)OCO4)cc(OC)c1O (some centres not stated)    TRUE
Cc1nc(O)nc2nc3ccc(Cl)cc3c(NCCNCCO)c12    FALSE
Oc1ccc(Cl)cc1/C=N/c1cnc2ccccc2c1    FALSE
N[C@@H](CCC(=O)NC(Cc1ccccc1)C(=O)NCP(=O)(O)O)C(=O)O (some centres not stated)    FALSE
CC1=C(SCc2ccccc2)C(=O)c2ccccc2C1=O    FALSE
Cc1cc(S(=O)(=O)Nc2nc(N)nc(N3N=CCC3C)n2)c(SCC(=O)O)cc1Cl (configuration not stated)    FALSE

Please let me know the test result on file for O=C1C=C(NCCc2cc(Br)c(O)c(Br)c2)C(=O)c2[nH]cnc21 . FALSE

Which outcome was assigned to COc1ccc(OC)c(NC2=NCCO2)c1 in this test? FALSE

Status in this test for O=C(O)C(CS)NCc1c2ccccc2nc2ccccc12 (configuration not stated) ? FALSE

Hey, what did the test say about CC(=O)C(CN(Cc1ccccc1)Cc1ccccc1)C(c1ccccc1)c1c(O)c2ccccc2oc1=O (configuration not stated) ? FALSE

Call for entry CN1C(=O)CC(CC(=O)C2CCCCC2=O)CC1=O (configuration not stated) : FALSE

* * *

Overview of recorded GI50 for various molecules
Test system: T47D
Experiment: NCI tumour cell line growth inhibition, 48 h
Calls of active or inactive are those of the source. No stated cut-off is given here; in the data, active = GI50 up to about 1.1 µM and inactive = higher.

Worked cases, answers included:
CCOc1ccccc1/N=N/C1C(=O)N(C(=O)CC(=O)Nc2ccccc2Cl)N=C1C (stereo not given)    > 100 µM (inactive)
Nc1nc(Cl)c(N)c(NCC2(CO)CCC2)n1    91.8 µM (inactive)
Cc1occc1C(=S)Nc1ccc(Cl)c(C(=O)OC(C)C2CC2)c1 (stereo not given)    19.1 µM (inactive)
O=C(CCO)OCCCCCC/C=C\CCCCCC/C=C\CCCCCCCCOC(=O)CCO    17.1 µM (inactive)
CN(C)/C=C1\CCc2ccc([N+](=O)[O-])cc2C1=O    26.7 µM (inactive)

Write down the reported GI50 (system: T47D) of NCCNc1ncnc2ccc(Cl)cc12 > 100 µM (inactive)

Origin of the recorded values: ChEMBL document CHEMBL1201862
